Attribution: patent US11497212B2

What Oryza sativa (Efficacy in %) was measured for each of the following?
- System: Oryza sativa
- METHOD SUMMARY: Crop compatibility post-emergence (greenhouse pot trial)
- Assay type: in vivo
- TEST PARAMETERS: application rate 5 g/ha
Give bare numbers, in %.

- COMPOUND: "CC(Sc1cc(-n2c(=O)cc(C(F)(F)F)n(C)c2=O)c(F)cc1Cl)C(=O)OCC1CCCO1 (stereo not shown) [I.1-71]"
  SYSTEM NAME: "Oryza sativa"
  Oryza sativa (Efficacy in %): 20

Hey, quick one: what's Oryza sativa (Efficacy in %) for each of these?
1. CCC(Sc1cc(-n2c(=O)cc(C(F)(F)F)n(C)c2=O)c(F)cc1Cl)C(=O)OCC1CCOC1 (stereo not shown) [I.2-72]
2. COCCOC(=O)C(C)Sc1cc(-n2c(=O)cc(C(F)(F)F)n(C)c2=O)c(F)cc1Cl (stereo not shown) [I.1-1]
3. Cn1c(C(F)(F)F)cc(=O)n(-c2cc(SCC(C)(C)C(=O)OCC3CCOC3)c(Cl)cc2F)c1=O (stereo not shown) [I.48-72]
4. CCOCCCOC(=O)C(C)Sc1cc(-n2c(=O)cc(C(F)(F)F)n(C)c2=O)c(F)cc1Cl (stereo not shown) [I.1-27]
5. CON(C(=O)C(C)Sc1cc(-n2c(=O)cc(C(F)(F)F)n(C)c2=O)c(F)cc1Cl)C1CCOC1 (stereo not shown) [I.1-341]
6. COCCCOC(=O)C(C)Sc1cc(-n2c(=O)cc(C(F)(F)F)n(C)c2=O)c(F)cc1Cl (stereo not shown) [I.1-26]
7. Cc1c(C(F)(F)F)n(C)c(=O)n(-c2cc(SCC(C)(C)C(=O)OCC3CCCO3)c(Cl)cc2F)c1=O (stereo not shown) [I.54-71]

Result string:
1. 20
2. 20
3. 0
4. 10
5. 10
6. 10
7. 0

Hey, quick one: what's Oryza sativa (Efficacy in %) for each of these?
1. CC(Sc1cc(-n2c(=O)cc(C(F)(F)F)n(C)c2=O)c(F)cc1Cl)C(=O)OC1COC1 (stereo not shown) [I.1-115]
2. CC(Sc1cc(-n2c(=O)cc(C(F)(F)F)n(C)c2=O)c(F)cc1Cl)C(=O)OCCOCc1ccccc1 (stereo not shown) [I.1-6]
3. COCCOC(=O)CSc1cc(-n2c(=O)cc(C(F)(F)F)n(C)c2=O)c(F)cc1Cl [I.8-1]
4. COCCOCCOC(=O)C(C)Sc1cc(-n2c(=O)cc(C(F)(F)F)n(C)c2=O)c(F)cc1Cl (stereo not shown) [I.1-23]

Result string:
0
0
10
10

Query string: Name the recorded Oryza sativa (Efficacy in %) for CC(Sc1cc(-n2c(=O)cc(C(F)(F)F)n(C)c2=O)c(F)cc1Cl)C(=O)NC1CCCOC1 (stereo not shown) [I.1-276] .
Result string: 10

----------
What Triticum aestivum (Efficacy in %) was measured for each of the following?
- Tested on: Triticum aestivum
- METHOD SUMMARY: Crop compatibility post-emergence (greenhouse pot trial)
- Type: in vivo
- TEST PARAMETERS: application rate 20 g/ha
- Description: Seeds of mono- and dicotyledonous weed plants and crop plants are laid out in sandy loam soil in plastic or wood-fiber pots, covered with earth and grown under controlled growth conditions in a greenhouse. […] After the trial plants had stood for about 3 weeks in the greenhouse, under optimal growth conditions, the effect of the preparations was scored visually by comparison with untreated controls. […] Crop plant compatibilities were also scored correspondingly. […]
Numbers only, in %.

- MOLECULE: "CC(Sc1cc(-n2c(=O)cc(C(F)(F)F)n(C)c2=O)c(F)cc1Cl)C(=O)NCC1CCCS1(=O)=O (stereo not shown)"
  SYSTEM NAME: "Triticum aestivum"
  Triticum aestivum (Efficacy in %): 20
- MOLECULE: "Cn1c(C(F)(F)F)cc(=O)n(-c2cc(SCC(C)(C)C(=O)OC3CCOCC3)c(Cl)cc2F)c1=O"
  SYSTEM NAME: "Triticum aestivum"
  Triticum aestivum (Efficacy in %): 10
- MOLECULE: "Cc1c(C(F)(F)F)n(C)c(=O)n(-c2cc(SCC(C)(C)C(=O)NCC3CCCO3)c(Cl)cc2F)c1=O (stereo not shown)"
  SYSTEM NAME: "Triticum aestivum"
  Triticum aestivum (Efficacy in %): 0
- MOLECULE: "Cc1c(C(F)(F)F)n(C)c(=O)n(-c2cc(SC(CC(C)C)C(=O)NCC3CCCO3)c(Cl)cc2F)c1=O (stereo not shown)"
  SYSTEM NAME: "Triticum aestivum"
  Triticum aestivum (Efficacy in %): 20
- MOLECULE: "CC(Sc1cc(-n2c(=O)cc(C(F)(F)F)n(C)c2=O)c(F)cc1Cl)C(=O)OC1CCCOC1 (stereo not shown)"
  SYSTEM NAME: "Triticum aestivum"
  Triticum aestivum (Efficacy in %): 20
- MOLECULE: "CC(Sc1cc(-n2c(=O)cc(C(F)(F)F)n(C)c2=O)c(F)cc1Cl)C(=O)OCCCOCc1ccccc1 (stereo not shown)"
  SYSTEM NAME: "Triticum aestivum"
  Triticum aestivum (Efficacy in %): 20

# evaluate next
Query string: Name the recorded Triticum aestivum (Efficacy in %) for Cn1c(C(F)(F)F)cc(=O)n(-c2cc(SCC(C)(C)C(=O)OCC3CCCS3)c(Cl)cc2F)c1=O (stereo not shown) .
Result string: 20
